Molecular target: T1, human soluble IL-6R, recombinant (human, UniProt P08887 20-358)
T1 construct: also called human IL6-R; bio-IL-6R
T1 sequence (looked up): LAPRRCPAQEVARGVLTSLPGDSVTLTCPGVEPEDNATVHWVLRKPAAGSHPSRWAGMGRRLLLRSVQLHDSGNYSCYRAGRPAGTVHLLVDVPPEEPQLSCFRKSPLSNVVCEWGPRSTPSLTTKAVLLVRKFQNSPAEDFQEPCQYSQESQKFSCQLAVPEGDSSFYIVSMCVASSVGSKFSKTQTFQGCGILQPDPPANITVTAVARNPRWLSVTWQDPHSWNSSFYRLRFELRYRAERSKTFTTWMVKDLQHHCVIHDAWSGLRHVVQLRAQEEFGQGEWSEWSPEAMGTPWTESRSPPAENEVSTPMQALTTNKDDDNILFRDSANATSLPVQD
Test: Biacore, periplasmic extract
PARAMETER: koff (s⁻¹)
All answers are understood in s⁻¹, so give the number only.

BINDER	UNITS_OF_MEASURE	koff
IL6RPMP104B8 (VHH, family 3; also called PMP104B08; IL6R104B8) VHH: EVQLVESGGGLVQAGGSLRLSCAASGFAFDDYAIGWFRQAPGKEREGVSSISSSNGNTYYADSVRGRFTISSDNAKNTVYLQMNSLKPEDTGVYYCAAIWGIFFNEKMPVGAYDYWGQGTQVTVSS	s⁻¹	0.01

Which measured koff value corresponds to IL6RPMP107H2 (VHH, family 27; also called IL6R107H2) VHH: KVQLVESGGGLVQPGGSLRLSCAASGFTFSSYAMSWVRRAPGKGLEWVSAINSDGTGSSYAPFVTGRFTASRDNAKNTLYLQMNSLKPEDTAVYYCTNSNRYDYADFSAVRGQGTQVTVSS ?
0.0001
